settings: 330.16 K; 101.33 kPa; Liquid; Vibrating tube method
± gives the expanded uncertainty stated by the source.
Endpoint name: mass density

The examples below pair each entry with its known result.
CCCCC(=O)[O-].C[NH2+]CCO [2-hydroxy-N-methylethanaminium pentanoate]    994.354 ± 2.1 kg/m3
CCCC(=O)[O-].C[NH2+]CCO [N-methyl-2-hydroxyethylammonium butanoate]    1017.37 ± 2.2 kg/m3
CC(=O)[O-].C[NH2+]CCO [N-methyl-2-hydroxyethylammonium acetate]    1081.24 ± 2.2 kg/m3
CC(C)C(=O)[O-].C[NH2+]CCO [2-hydroxy-N-methylethanaminium isobutyrate]    1022.32 ± 2.2 kg/m3
CCC(=O)[O-].C[NH2+]CCO [2-hydroxy-N-methylethanaminium propionate]    1050.07 ± 2.2 kg/m3

Task: For C[NH2+]CCO.O=C[O-] [2-hydroxy-N-methylethanaminium formate] , write its mass density.
Result: 1110.52 ± 2.2 kg/m3

====

conditions: 310.65 K; 101.33 kPa; Liquid; Pulse-echo method
Reported values of speed of sound for individual entries
Just the number in m/s, nothing appended.

CC(C)C(=O)[O-].C[NH2+]CCO [2-hydroxy-N-methylethanaminium isobutyrate]    1576
CCCC(=O)[O-].C[NH2+]CCO [N-methyl-2-hydroxyethylammonium butanoate]    1575.3

Task: State its speed of sound: CCC(=O)[O-].C[NH2+]CCO [2-hydroxy-N-methylethanaminium propionate]
Result: 1653.1

Task: Give the measured speed of sound for CCCCC(=O)[O-].C[NH2+]CCO [2-hydroxy-N-methylethanaminium pentanoate]
Result: 1509.9

Task: Return the recorded speed of sound value; entry: C[NH2+]CCO.O=C[O-] [2-hydroxy-N-methylethanaminium formate]
Result: 1791

====

In this section we review reported mass density values for a set of compounds.
details: 322.65 K; 101.33 kPa; Liquid; Vibrating tube method
Give the number; kg/m3 is assumed, so skip it.

# example entries with known answers
C[NH2+]CCO.O=C[O-] [2-hydroxy-N-methylethanaminium formate]    1114.61
CCCCC(=O)[O-].C[NH2+]CCO [2-hydroxy-N-methylethanaminium pentanoate]    999.586
CCCC(=O)[O-].C[NH2+]CCO [N-methyl-2-hydroxyethylammonium butanoate]    1022.61
CCC(=O)[O-].C[NH2+]CCO [2-hydroxy-N-methylethanaminium propionate]    1055.15
CC(=O)[O-].C[NH2+]CCO [N-methyl-2-hydroxyethylammonium acetate]    1085.93

We now examine a further compound.
Task: Input CC(C)C(=O)[O-].C[NH2+]CCO [2-hydroxy-N-methylethanaminium isobutyrate] , output reported mass density.
Result: 1027.37

====

conditions: 278.4 K; 101.33 kPa; Liquid; Vibrating tube method
Endpoint name: mass density (kg/m3)
Answer format: numeric, kg/m3 implied, no suffix.

Illustrative cases are given below, each with its answer.
CC(=O)[O-].C[NH2+]CCO [N-methyl-2-hydroxyethylammonium acetate]    1112.68
CCC(=O)[O-].C[NH2+]CCO [2-hydroxy-N-methylethanaminium propionate]    1084.12
CC(C)C(=O)[O-].C[NH2+]CCO [2-hydroxy-N-methylethanaminium isobutyrate]    1055.96

Task: Fill in reported mass density for this entry: CCCCC(=O)[O-].C[NH2+]CCO [2-hydroxy-N-methylethanaminium pentanoate]
Result: 1029.52

Task: Supply reported mass density belonging to this compound: CCCC(=O)[O-].C[NH2+]CCO [N-methyl-2-hydroxyethylammonium butanoate]
Result: 1052.55

Task: Give recorded mass density. C[NH2+]CCO.O=C[O-] [2-hydroxy-N-methylethanaminium formate]
Result: 1139.26
